Below is a list of entries, each paired with its recorded growth value.
Test system: TK-10 renal
assay-overview: NCI-60 one-dose screen, 48 h (100 = growth as untreated, 0 = no growth, -100 = all killed)
setup-conditions: 10 µM unless noted
The panel holds about 83,000 compounds, 20% with a hit somewhere; the sample as a whole holds those more often.

compound	growth (%)
COC(=O)/C(CCC=C(C)C)=C1\[C@@H](OC(C)=O)C[C@@]2(C)[C@H]1CC(=O)[C@H]1[C@@]3(C)CCC(N4CCCC4)[C@@H](C)[C@@H]3CC[C@@]12C (some centres undefined)	102
Cc1ccc(C)c2c1C(O)(C#Cc1ccccc1)c1ccccc1C2(O)C#Cc1ccccc1 (centres undefined)	58.8
O=C1Nc2ccccc2/C1=C/c1cn(C[C@@H](O)Cn2c3ccccc3c(=O)c3ccccc32)c2ccccc12	90.6
CC(=O)c1c(Nc2ccc(F)c(F)c2F)[nH]c2c(F)cc(F)cc2c1=O	12.7
c1ccc(CCc2ccccc2-c2cc(-c3ccccc3)on2)cc1	110
Cc1ncc(C(=O)Nc2ccc(CN3CCN(C)CC3)c(C(F)(F)F)c2)cc1C#Cc1cnc(N)c2cnccc12	-22.6
CN1CCN(CCCOC(=O)c2c3c(n4ccccc24)C(=O)c2ncccc2C3=O)CC1	3.81
CCOC(=O)c1c2c(n3c1NCC3)-c1ccccc1C2=O	96.4
COc1cc(/C=C/c2cc(/C=C/c3ccc(O)c(OC)c3)n(C(=O)Nc3ccc(F)cc3)n2)ccc1O	38.1
C/C(=C(\c1ccc(OCCN2CCCCCC2)cc1)c1ccc(OC(=O)Cc2ccccc2)cc1)c1ccc(Cl)cc1	68.6
COc1ccc2nc(Cl)c(/C=C/C(=O)c3ccc(NC(=O)CSc4nnc(-c5ccc(Cl)c(Cl)c5)n4-c4ccccc4)cc3)cc2c1	100
CCNC(=O)Oc1ccc(/C(=C(/C)Cc2ccc(OC)cc2)c2ccc(OCCN3CCCCCC3)cc2)cc1	84.2
Cc1cc(N2CCN(C)CC2)nc(NCc2cc(Nc3ccnc4cc(Cl)ccc34)ccc2F)n1	-29.5
O=C(CBr)CN1C(=O)c2ccccc2C1=O	100
NS(=O)(=O)c1ccc(N/C=C/C(=O)c2cc3ccccc3oc2=O)cc1	125
N#Cc1c(-c2ccccc2)cc(-c2ccccc2)n(CCCC(=O)NO)c1=O	34.3
O=C1NC(=C(Cl)Cl)/C(=N/S(=O)(=O)NCCc2c[nH]c3ccccc23)N1	109
O=[N+]([O-])/C(=C\c1ccco1)c1ccccc1Cl	82.8
CC/C=C\C/C=C/C=C1/C(=O)C=C[C@@H]1C/C=C\CCCC(=O)OC	31.6

====

System: SNB-19 CNS
assay-overview: NCI-60 one-dose screen, 48 h (100 = growth as untreated, 0 = no growth, -100 = all killed)
setup-conditions: 10 µM unless noted
This is part of a sample that, as a whole, favours compounds with a hit. Of some 83,000 tested, about 20% had one in any assay.
Listed compounds paired with reported growth
readout-kind: growth (%)

>>> print(df.to_string())
                                   compound  experimental_result
0  COc1cc2cc(NCc3ccc(OC(F)F)cc3)nc(C)c2cc1OC                 66.2
1     Cc1ccc(-c2nc(C(Cl)Cl)nc3cc(C)nn23)cc1                 25.1
2  CCCCCCCC/C=C\CCCCCCCCOc1ccccc1CC(=O)NCC[N+]1(C)CCCCC1                 52.6
3  COc1ccc(/C=C/C(=O)c2ccc(Nc3nc(Nc4ccc(F)cc4)nc(Nc4ccc(Cl)cc4)n3)cc2)cc1                  115
4  COc1ccc(-c2cc(C(=O)N3N=C(c4ccc(N)cc4)CC3c3ccccc3)c3ccccc3n2)cc1 (stereo not given)                 47.8
5  O=C1OCC2=C1C(c1cccc(F)c1)c1cc3c(cc1N2CCO)OCO3 (stereo not given)                 32.9
6             Cn1cccc1/C=C1\C(=O)Nc2ccccc21                 90.4
7  O=c1[nH]cnc2c1C(c1ccc(Br)cc1)c1sc3c(F)cccc3c1O2 (stereo not given)                 91.8
8    CCCNc1nc2ccccc2c2c(=O)c3cccc(Cl)c3sc12                  110
9  CC(=O)c1c(Nc2ccc(F)c(F)c2F)[nH]c2c(F)cc(F)cc2c1=O                   22

====

Tested on: CCRF-CEM leukemia
assay-overview: NCI-60 one-dose screen, 48 h
setup-conditions: 10 µM unless noted
This is part of a sample that, as a whole, favours compounds with a hit. Of some 83,000 tested, about 20% had one in any assay. The source made the active and inactive calls. How the source made its calls: active means growth percent below 10; inactive means the rest.
Labels: TRUE for active, FALSE for inactive

>>> print(df.to_string())
                                   molecule  assigned_class
0  CC(C)[C@@]12C[C@@H](OC(=O)COC(=O)c3ccccc3)[C@@](C)(O1)[C@@H]1CC[C@@H](C)[C@H]1[C@@H]2OC(=O)/C=C/c1ccccc1           FALSE
1            CCCCC(=O)Nc1ncc(Cc2ccccc2Cl)s1           FALSE
2   COc1ccc(OC)c(Nc2nnc(-c3ccc(Cl)cc3)o2)c1           FALSE
3  CCOC(=O)C1CCN(c2ccc(N3C[C@@H](CNCc4ccc(C(=N)N)cc4)OC3=O)cc2)CC1           FALSE
4                  CCSC1=CC(=O)c2ccccc2C1=O            TRUE
5  CC(C(=O)O)n1c(O)c(C=Nc2cccnc2)sc1=S (stereo not given)           FALSE
6  COC(=O)c1nc(-c2ccccc2)oc1S(=O)(=O)N1CCC(C(N)=O)CC1            TRUE
7  O=C(N/N=C/c1ccc([N+](=O)[O-])cc1)c1ccc2nc(-c3ccc(Cl)cc3)[nH]c2c1            TRUE
8  CCn1c2ccc(O)cc2c2c(C)c3c[n+](C(C)C)ccc3c(C)c21           FALSE
9  CC(C)CN1CC(C(=O)Nc2ccc3c(c2)-c2ccccc2C3)CC1=O (stereo not given)           FALSE

====

Test system: HCT-116 colon
assay-overview: NCI-60 one-dose screen, 48 h (100 = growth as untreated, 0 = no growth, -100 = all killed)
setup-conditions: 10 µM unless noted
About 83,000 compounds went through this panel and 20% of them were active in at least one assay; those are over-represented in the sample as a whole.
Measured growth accompanies every entry in the list below.
readout-kind: growth (%)

                                    molecule  readout_kind  experimental_result
 0  CC1(C)O[C@H]2OC3CCC(=O)CC3(O)[C@H]2O1 (some centres undefined)        growth                 95.1
 1  Nc1n[nH]c2ccc([C@@H]3Nc4cc5[nH]ncc5cc4[C@H]4C5CCC(C5)[C@@H]34)cc12 (some centres undefined)        growth                 8.92
 2  Cc1cc(C(=O)Nc2cc(Nc3ncccc3-c3ncnc4nc[nH]c34)ccc2F)cc(C(F)(F)F)c1        growth                 19.1
 3  O=C1/C(=C/c2ccc(C(F)(F)F)cc2)COc2ccc(O)cc21        growth                 33.2
 4  COc1ccc(NC(=O)c2sc3nc(C)c(C(O)c4ccccc4)cc3c2N)cc1 (centres undefined)        growth                 21.4
 5  Cc1[nH]c(/C=C/C(=O)c2ccc(C(F)(F)F)c(F)c2)c(C)c1C(=O)NCC(C)C        growth                 96.7
 6  Cc1cc(F)ccc1S(=O)(=O)Nc1cc(-c2c(O)ccc3ccccc23)c(O)c2ccccc12        growth                 5.49
 7  O=c1[nH]cnc2c1C(c1ccc(Br)cc1)c1sc3c(F)cccc3c1O2 (centres undefined)        growth                 98.9
 8  CC(C)(C)C(=O)/C=C/c1ccc([N+](=O)[O-])cc1        growth                 42.2
 9  C[C@@H](CO)[C@@H]1CC[C@]2(C(=O)N3CCN(C)CC3)CC[C@]3(C)[C@H](CC[C@@H]4[C@@]5(C)CC[C@H](O)C(C)(C)[C@@H]5CC[C@]43C)[C@@H]12        growth                 16.7
10                              C=NNc1ccccc1        growth                 80.7
11  COc1ccc(-c2cc(-c3cc(OC)c(OC)c(OC)c3)c(C#N)c(=O)n2CCCCCC(=O)NO)cc1        growth                   88
12  CN1CCN(c2ccc3c(c2)nc(NNC(=O)c2cnccn2)c2cccn23)CC1        growth                 23.1
13      O=[N+]([O-])/C(=C\c1ccco1)c1ccccc1Cl        growth                 11.8
14  COc1cc(C(=O)/C=C/c2ccc(N3CCN(C)CC3)cc2)cc(OC)c1OC        growth                  104
15  O=C(/C=C/c1cccc(Cl)c1)c1cccc(OCCCCOc2cccc(C(=O)/C=C/c3cccc(Cl)c3)c2)c1        growth                -13.7
16    Oc1c(CN2CCCC2)cc(COCc2ccccc2)c2cccnc12        growth                 9.16
17  CCCCCCC(CCCC)COC(=O)c1ccc(Cl)cc1 (centres undefined)        growth                  104
18                            Cc1cscc(C)c1=S        growth                 61.2
19  O=C(O)c1cn(C2CC2)c2cc(N3CCN(C(=O)N/N=C/c4ccccc4)CC3)c(F)cc2c1=O        growth                  108
20  COCCCOc1cc(C[C@@H](C[C@H](N)[C@@H](O)C[C@H](C(=O)NCC(C)(C)C(N)=O)C(C)C)C(C)C)ccc1OC        growth                  101
21  CCCCN1C(=O)/C(=c2\sc3n(c2=O)NC2C(N=3)N(CC)C(=O)N2CC)c2ccccc21 (centres undefined)        growth                 13.1
22  CC/C(Cc1ccccc1)=C(\c1ccc(OCCN2CCCCCC2)cc1)c1ccc(OC(=O)NCc2ccccc2)cc1        growth                  2.8
23  CC(C)CSc1oc(-c2ccccc2)nc1S(=O)(=O)c1ccccc1        growth                 81.9
24  O=S(=O)(c1ccccc1)N1CCCN(c2nc(-c3ccccc3)nc3nc(-c4ccccc4)oc23)CC1        growth                 89.5
25  CCN(CC)CCCNCc1cc(-c2ccccc2)nc2cc(Cl)ccc12        growth                -16.5
26  CCCCCCCCn1ccc2cc(NC(=O)Cn3cc(CN4CCCCCC4)nn3)ccc21        growth                -77.3
27  Cn1c(=O)c2c(c3ccccc31)OC(N)=C(C#N)C21C(=O)c2ccccc2C1=O        growth                 92.2
28       O=C1NC(=Nc2ccc(O)cc2)S/C1=C\c1cccs1        growth                 32.9
29        C/C(=N\O)C(=O)NCCCCCC(=O)Nc1ccccc1        growth                  100
30  N#Cc1c(-c2cccc([N+](=O)[O-])c2)cc(-c2ccc(Nc3nc(Nc4ccc(F)cc4)nc(Nc4ccc(F)cc4)n3)cc2)nc1N        growth                  108
31               Cc1c2ccccc2nc2c1ccc1cccnc12        growth                 56.2
32  CN(C)Cc1ccc(C(=O)Nc2ccc3ncnc(Nc4ccc(Oc5cccc(F)c5)c(Cl)c4)c3c2)cc1        growth                -39.7
33  CCNC(=O)Oc1ccc(/C(=C(/C)Cc2ccc(OC)cc2)c2ccc(OCCN3CCCCCC3)cc2)cc1        growth                 56.3
34  CC1O[C@@H]2C[C@@](O)([C@H]1O)n1c3ccccc3c3c4c(c5c6ccccc6n2c5c31)C(=O)NC4=O (some centres undefined)        growth                 15.6
35  COc1ccc(NC(=O)c2sc3nc4c(cc3c2N)CCCC4)cc1        growth                 30.3
36  COc1cc2c(c(OC)c1OC)C(=O)CC(c1cccc(NC(=O)c3ccccc3Br)c1)O2 (centres undefined)        growth                 75.6
37  CCCCCCCC/C=C\CCCCCCCCOc1ccccc1CC(=O)NCC[N+]1(C)CCCCC1        growth                 48.2
38  CCN(CC)CCNC(=O)c1ccc(-c2nc3ccc4[nH]ncc4c3c3c2CCCC3)cc1        growth                 24.1
